# reported binding affinity ratio (IC50 of standard peptide / IC50 of test peptide); entries follow
biological target: HLA-A*0301 (human)

Look over these answered cases.
{"BINDER": "CATMCRHYK (modifications not checked) [HPV16 E1 peptide … (position 405, 9 amino acids)]", "RESULT_VALUE": 0.0012}
{"BINDER": "LLVRYKCGK (modifications not checked) [HPV16 E1 peptide … (position 277, 9 amino acids)]", "RESULT_VALUE": 0.0043}
{"BINDER": "SVAALYWYR (modifications not checked) [HPV18 E1 position 322 peptide …]", "RESULT_VALUE": 2.9}

Query string: For the binder shown here, ATMCRHYKR (modifications not checked) [HPV16 E1 peptide … (position 406, 9 amino acids)] , give the reported binding affinity ratio (IC50 of standard peptide / IC50 of test peptide).
Result string: 0.066
